Entry source: patent US20230218710A1

Biological target: human APJ (Homo sapiens, UniProt P35414)
Sequence (P35414 whole entry): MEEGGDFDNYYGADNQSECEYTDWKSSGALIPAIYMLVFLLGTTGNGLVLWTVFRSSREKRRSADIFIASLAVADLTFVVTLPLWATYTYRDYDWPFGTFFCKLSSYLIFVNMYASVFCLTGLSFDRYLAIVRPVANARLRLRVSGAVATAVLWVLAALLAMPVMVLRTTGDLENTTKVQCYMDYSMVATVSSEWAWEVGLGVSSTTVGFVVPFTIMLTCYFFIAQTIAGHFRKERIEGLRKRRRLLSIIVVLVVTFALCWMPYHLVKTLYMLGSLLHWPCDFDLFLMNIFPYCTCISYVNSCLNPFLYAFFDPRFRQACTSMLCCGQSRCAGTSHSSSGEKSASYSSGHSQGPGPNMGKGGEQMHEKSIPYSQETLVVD
Sequence (P32121 whole entry partner): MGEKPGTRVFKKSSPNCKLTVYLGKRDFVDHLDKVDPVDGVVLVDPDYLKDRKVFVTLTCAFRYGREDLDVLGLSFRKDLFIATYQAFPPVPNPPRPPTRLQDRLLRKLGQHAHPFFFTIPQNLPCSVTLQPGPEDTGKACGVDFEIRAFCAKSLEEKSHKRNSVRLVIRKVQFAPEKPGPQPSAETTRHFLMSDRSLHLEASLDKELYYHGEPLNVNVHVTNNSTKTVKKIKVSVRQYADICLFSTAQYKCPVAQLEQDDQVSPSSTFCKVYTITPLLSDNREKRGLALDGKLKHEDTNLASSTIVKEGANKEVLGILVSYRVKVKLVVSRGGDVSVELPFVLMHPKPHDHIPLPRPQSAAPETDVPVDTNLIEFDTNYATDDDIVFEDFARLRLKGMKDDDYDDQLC
Assay: cell-based
Conditions: CHO-K1, 1.5 h, read-out: Percent of Apelin-13 Control Activity
Protocol: The effect of the peptides on activation of Apelin Receptor (APJ) can be assessed using an assay to monitor β-Arrestin recruitment in cultured cells overexpressing APJ such as CHO-K1, derived from Chinese hamster ovary. β-Arrestin recruitment assays were performed by Eurofins-DiscoverX (Fremont, Calif.) using CHO-K1 AGTRL1 β-Arrestin cell line (co-expressing ProLink tagged human APJ and Enzyme Acceptor tagged β-Arrestin) and PathHunter detection kit. […]
Square brackets hold non-standard residues; d marks the D form. Peptide text beside a SMILES is read from it.
Each entry gets not fulfilled if its Emax at 10 µM stays under 10%, and fulfilled if its Emax at 10 µM is 10% or above.

Reference set (4 entries):
Molecule	Answer Label
COCCOCCOCCOCCOCCOCCOCCOCCOCCOCCOCCOCCC(=O)N[C@@H](CCCCN)C(=O)N[C@@H](CCCNC(=N)N)C(=O)N[C@@H](CCCNC(=N)N)C(=O)N[C@@H](CCSC)C(=O)N[C@@H](CCSC)C(=O)NCC(=O)N[C@@H](CCSC)C(=O)N[C@H](C(=O)N[C@@H](Cc1ccccc1)C(=O)N[C@@H](CCC(N)=O)C(=O)N[C@@H](CS)C(=O)N[C@@H](CC(C)C)C(=O)N[C@@H](CS)C(=O)NCC(=O)N[C@H](C)C(=O)O)C(C)C	not fulfilled
CSCC[C@H](NC(=O)CNC(=O)[C@H](CCSC)NC(=O)[C@H](CCSC)NC(=O)[C@H](CCCNC(=N)N)NC(=O)[C@@H](N)CCCNC(=N)N)C(=O)N[C@H](C(=O)N[C@@H](Cc1ccccc1)C(=O)N[C@@H](CCC(N)=O)C(=O)N[C@@H](CO)C(=O)N[C@@H](CC(C)C)C(=O)N[C@@H](CS)C(=O)NCC(=O)N[C@H](C)C(=O)O)C(C)C	fulfilled
CSCC[C@H](NC(=O)[C@H](CCCNC(=N)N)NC(=O)[C@@H](N)CCCNC(=N)N)C(=O)N[C@@H](CCC(=O)O)C(=O)N[C@H](C(=O)N[C@@H](Cc1ccc(O)cc1)C(=O)N[C@@H](CCC(N)=O)C(=O)N[C@@H](CS)C(=O)N[C@@H](CC(C)C)C(=O)N[C@@H](CS)C(=O)NCC(=O)N[C@H](C)C(=O)O)C(C)C [compound 31] (H-RRMEVYQCLCG[dA]-OH; N-terminus and C-terminus assumed)	not fulfilled
COCCOCCOCCOCCOCCOCCOCCOCCOCCOCCOCCOCCC(=O)N[C@@H](CCCCN)C(=O)N[C@@H](CCCNC(=N)N)C(=O)N[C@@H](CCCNC(=N)N)C(=O)N[C@@H](CC(C)C)C(=O)N[C@@H](CC(C)C)C(=O)NCC(=O)N[C@@H](CC(C)C)C(=O)N[C@H](C(=O)N[C@@H](Cc1ccccc1)C(=O)N[C@@H](CCC(N)=O)C(=O)N[C@@H](CO)C(=O)N[C@@H](CC(C)C)C(=O)N[C@@H](CS)C(=O)NCC(=O)N[C@H](C)C(=O)O)C(C)C	fulfilled

# input for lookup
Enquiry: Determine whether measured Emax at 10 µM meets or exceeds 10% for COCCOCCOCCOCCOCCOCCOCCOCCOCCOCCOCCOCCC(=O)N[C@@H](CCCCN)C(=O)N[C@@H](CCCNC(=N)N)C(=O)N[C@@H](CCCNC(=N)N)C(=O)N[C@@H](CCSC)C(=O)N[C@@H](CCSC)C(=O)NCC(=O)N[C@@H](CCSC)C(=O)N[C@H](C(=O)N[C@@H](Cc1ccccc1)C(=O)N[C@@H](CCC(N)=O)C(=O)N[C@@H](CO)C(=O)N[C@@H](CC(C)C)C(=O)N[C@@H](CS)C(=O)NCC(=O)N[C@H](C)C(=O)O)C(C)C
Return: fulfilled

* * *

Listed here are molecules together with their documented remaining at 0.5 h, 50 μM.
assay: in vitro; conditions: human, pooled human plasma
Square brackets hold non-standard residues; d marks the D form. Peptide text beside a SMILES is read from it.
Give the value in % but do not write % after it.

Molecule	Val
CSCC[C@H](NC(=O)CNC(=O)[C@H](CCSC)NC(=O)[C@@H](N)CCSC)C(=O)N[C@H](C(=O)N[C@@H](Cc1ccccc1)C(=O)N[C@@H](CCC(N)=O)C(=O)N[C@@H](CO)C(=O)N[C@@H](CC(C)C)C(=O)O)C(C)C [compound 48] (H-MMGMVFQSL-OH)	92

Shift focus to the following entry.
Enquiry: Write down remaining at 0.5 h, 50 μM measured for item CC[C@H](C)[C@H](NC(=O)[C@H](CCCNC(=N)N)NC(=O)[C@@H](N)CCCNC(=N)N)C(=O)N[C@H](C(=O)N[C@H](C)C(=O)N[C@H](C(=O)N[C@H](C(=O)N[C@@H](Cc1ccccc1)C(=O)N[C@@H](CCC(N)=O)C(=O)N[C@@H](CS)C(=O)N[C@@H](CC(C)C)C(=O)N[C@@H](CS)C(=O)N[C@H](C)C(=O)N[C@@H](CC(C)C)C(=O)O)C(C)C)[C@@H](C)CC)[C@@H](C)CC [compound 9] (H-RRII[dA]IVFQCLC[dA]L-OH)
Return: 92.5

* * *

molecular target: human APJ (Homo sapiens); assay: cell-based; settings: CHO-K1, 1.5 h, read-out: Percent of Apelin-13 Control Activity
Square brackets hold non-standard residues; d marks the D form. Peptide text beside a SMILES is read from it.
Property Name: Emax at 10 µM (%)
Give the value in % but do not write % after it.

# example entries with known answers
Compound	Uom	Emax at 10 µM
CSCC[C@H](NC(=O)CNC(=O)[C@H](CCSC)NC(=O)[C@H](CCSC)NC(=O)[C@H](CCCNC(=N)N)NC(=O)[C@@H](N)CCCNC(=N)N)C(=O)N[C@H](C(=O)N[C@@H](C)C(=O)N[C@@H](CCC(N)=O)C(=O)N[C@@H](CS)C(=O)N[C@@H](CC(C)C)C(=O)N[C@@H](CCC(=O)O)C(=O)NCC(=O)N[C@H](C)C(=O)O)C(C)C [compound 30] (H-RRMMGMVAQCLEG[dA]-OH; N-terminus and C-terminus assumed)	%	-1
CSCC[C@H](NC(=O)CNC(=O)[C@H](CCSC)NC(=O)[C@H](CCSC)NC(=O)[C@H](CCCNC(=N)N)NC(=O)[C@@H](N)CCCNC(=N)N)C(=O)N[C@H](C(=O)N[C@@H](C)C(=O)N[C@@H](CCC(N)=O)C(=O)N[C@@H](CS)C(=O)N[C@@H](CC(C)C)C(=O)N[C@@H](CS)C(=O)NCC(=O)N[C@H](C)C(=O)O)C(C)C [compound 11]	%	0

Enquiry: Write down Emax at 10 µM measured for item COCCOCCOCCOCCOCCOCCOCCOCCOCCOCCOCCOCCC(=O)NCCCC[C@H](NC(=O)[C@@H](C)NC(=O)CNC(=O)[C@H](CS)NC(=O)[C@H](CC(C)C)NC(=O)[C@H](CS)NC(=O)[C@H](CCC(N)=O)NC(=O)[C@H](Cc1ccccc1)NC(=O)[C@@H](NC(=O)[C@H](CCSC)NC(=O)CNC(=O)[C@H](CCSC)NC(=O)[C@H](CCSC)NC(=O)[C@H](CCCNC(=N)N)NC(=O)[C@@H](N)CCCNC(=N)N)C(C)C)C(=O)O [compound 21]
Return: 1

* * *

assay: in vitro; conditions: human, pooled human plasma
Peptide text beside a SMILES is read from it.
Property Name: remaining at 0.5 h, 50 μM (%)
Give the value in % but do not write % after it.

Enquiry: Write down remaining at 0.5 h, 50 μM measured for item CSCC[C@H](NC(=O)CNC(=O)[C@H](CCSC)NC(=O)[C@H](CCSC)NC(=O)[C@H](CCCNC(=N)N)NC(=O)[C@@H](N)CCCNC(=N)N)C(=O)N[C@H](C(=O)N[C@@H](Cc1ccccc1)C(=O)N[C@@H](CCC(N)=O)C(=O)O)C(C)C [compound 58] (H-RRMMGMVFQ-OH)
Return: 69.5

Enquiry: Write down remaining at 0.5 h, 50 μM measured for item CSCC[C@H](NC(=O)CNC(=O)[C@H](CCSC)NC(=O)[C@H](CCSC)NC(=O)[C@@H](N)CCCNC(=N)N)C(=O)N[C@H](C(=O)N[C@@H](Cc1ccccc1)C(=O)O)C(C)C [compound 50] (H-RMMGMVF-OH)
Return: 87.7

* * *

experiment: in vitro; details: human, pooled human plasma
Peptide text beside a SMILES is read from it.
Property Name: remaining at 0.5 h, 50 μM (%)
Give the value in % but do not write % after it.

Molecule	Uom	remaining at 0.5 h, 50 μM
CSCC[C@H](NC(=O)CNC(=O)[C@H](CCSC)NC(=O)[C@H](CCSC)NC(=O)[C@H](CCCNC(=N)N)NC(=O)[C@@H](N)CCCNC(=N)N)C(=O)N[C@H](C(=O)O)C(C)C [compound 56] (H-RRMMGMV-OH)	%	92.1

Enquiry: Write down remaining at 0.5 h, 50 μM measured for item COCCOCCOCCOCCOCCOCCOCCOCCOCCOCCOCCOCCC(=O)NCCCC[C@H](NC(=O)[C@@H](C)NC(=O)CNC(=O)[C@H](CS)NC(=O)[C@H](CC(C)C)NC(=O)[C@H](CS)NC(=O)[C@H](CCC(N)=O)NC(=O)[C@H](Cc1ccccc1)NC(=O)[C@@H](NC(=O)[C@H](CCSC)NC(=O)CNC(=O)[C@H](CCSC)NC(=O)[C@H](CCSC)NC(=O)[C@H](CCCNC(=N)N)NC(=O)[C@@H](N)CCCNC(=N)N)C(C)C)C(=O)O
Return: 29.5

Enquiry: Write down remaining at 0.5 h, 50 μM measured for item CSCC[C@H](NC(=O)CNC(=O)[C@H](CCSC)NC(=O)[C@@H](N)CCSC)C(=O)N[C@H](C(=O)N[C@@H](Cc1ccccc1)C(=O)O)C(C)C [compound 45] (H-MMGMVF-OH)
Return: 90.8

Enquiry: Write down remaining at 0.5 h, 50 μM measured for item CSCC[C@H](NC(=O)CNC(=O)[C@H](CCSC)NC(=O)[C@H](CCSC)NC(=O)[C@H](CCCNC(=N)N)NC(=O)[C@@H](N)CCCNC(=N)N)C(=O)N[C@H](C(=O)N[C@@H](Cc1ccccc1)C(=O)N[C@@H](CCC(N)=O)C(=O)N[C@@H](CO)C(=O)N[C@@H](CC(C)C)C(=O)N[C@@H](CS)C(=O)NCC(=O)N[C@H](C)C(N)=O)C(C)C
Return: 30.3
